# system: human GLP-1 receptor (human, UniProt P43220 24-463)
# experimental_protocol: cell-based or functional assay
Numbered stars: 1 amine (or outer) side, 2 acyl side, 3 side chain; on linkers, the order of the positions; unused ones are H or OH. Square brackets hold non-standard residues; d marks the D form. Side chains are listed from the residue outwards. * marks the point of attachment. C20 diacid = O=C(O)CCCCCCCCCCCCCCCCCCC(=O)*; C18 diacid = O=C(O)CCCCCCCCCCCCCCCCC(=O)*; γGlu = O=C(O)[C@H](CCC(=O)[*:2])N[*:1]; Chem. 28 = not defined here; AEEA = NCCOCCOCC(=O)O; Aib = CC(C)(N)C(=O)O
value_kind: hGLP-1R Potency, 1% HSA, EC50 [pM] (pM)
Answer in pM, number only, no unit symbol.

>  <binder>
Compound 39 (reading uncertain) peptide: Y[Aib]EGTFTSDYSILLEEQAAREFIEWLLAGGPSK(Chem. 28)GGQEPGQEPGEASHLSTAQTQRLSAELHELATLPRTETGSGSP-NH2

>  <endpoint_result>
1930

$$$$
>  <binder>
Compound 77 (peptide) peptide: Y[Aib]EGTFTSDYSILLEEQAAREFIEWLLAGGPSSGAGQAPGQAPLASHLSTAQTQRLSAELHK([AEEA-AEEA-γGlu-C20 diacid])LATLPRTETGSGSP-NH2

>  <endpoint_result>
51.4

$$$$
>  <binder>
Compound 82 (peptide) peptide: H[Aib]HGTFTSDYSILLEEQAAREFIEWLLAGGPSSGEASHLSTAQTQRLSAK([AEEA-AEEA-γGlu-C18 diacid])LHRLATLPRTETGSGSP-NH2

>  <endpoint_result>
24.2

$$$$

Now for the binder whose hGLP-1R Potency, 1% HSA, EC50 [pM] we want.
So what's the measured hGLP-1R Potency, 1% HSA, EC50 [pM] for this one? Compound 85 (peptide) peptide: H[Aib]HGTFTSDYSILLEEQAAREFIEWLLAGGPSSGEASHLSTAQTQRLSAELHK([AEEA-AEEA-γGlu-C18 diacid])LATLPRTETGSGAP-NH2
30.3
